src = BindingDB's records for doi:10.7270/Q23T9FMP

Molecular target: Steroidogenic factor 1 (Homo sapiens)
Test: activation of SF-1 LBD reporter – cell-based, CHO-K1, Gal4-SF-1 LBD, luciferase luminescence, dose response (AID 692)
Metric: EC50 (nM)
Numbers only, in nM.

Sample `c1ccc(-c2cnc(CSc3nnc4ccccn34)o2)cc1` — what was its EC50?
957

Also need `Cc1cc(C(=O)OCC(=O)N2CCc3ccccc32)c(C)o1` , thanks.
1240

Also need COc1ccc2c(c1OC)C(=O)N1c3ccccc3SC21 (stereo not drawn) , thanks.
827

Also need `COc1ccc2nc(Nc3nc(C)c(C(C)=O)s3)sc2c1` , thanks.
572

Also need `O=C(Nc1ccc(NC(=O)c2cccs2)cn1)c1ccco1` , thanks.
5540

Kindly give each listed record's EC50.
1. CCCc1cc(C(=O)Nc2ccccc2SC)no1 [MLS000116378]
2. CCOC(=O)c1[nH]c2ccc(C)cc2c1N [MLS000079379]
3. CN(C)c1oc(-c2ccc(OCc3ccccc3)cc2)nc1C#N
4. CCCn1c(C)cc(C(=O)COc2ncnc3sccc23)c1C
5. COc1ccc(CNc2ccc(C(=O)O)cc2)cc1 [4-(p-anisylamino)benzoic acid]
6. COc1ccc(C(=O)CC=Nc2cccc(C)n2)cc1OC
7. Cc1cccnc1Nc1nc(-c2ccc(O)cc2O)cs1

4430
544
5210
585
1840
401
2270

Kindly give each listed record's EC50.
1. O=C(Nc1ccc(-c2cn3ccsc3n2)cc1)C1CC1 [MLS000053249]
2. CCOC(=O)CSc1nc(-c2ccncc2)ccc1C#N

1: 1190; 2: 1620

* * *

Biological target: Steroidogenic factor 1 (Homo sapiens)
Experiment: activation of SF-1 LBD reporter – cell-based, CHO-K1, Gal4-SF-1 LBD, luciferase luminescence, dose response (AID 692)
Metric: pEC50
One number for each entry, as −log10 of the molar value.

# annotated cases, reported pEC50 shown
Sample `O=C(Nc1ccc(CN2CCOCC2)cc1)c1cc2ccccc2o1` — what was its pEC50?
6.14

Also need `C=CCn1c(-c2ccccc2)c[nH]c1=S` , thanks.
5.92

Also need `O=C(CSc1ccccn1)c1ccc2c(c1)OCO2` , thanks.
5.93

Also need `Clc1ccc(-n2ncc3c(NCc4ccccn4)ncnc32)cc1` , thanks.
5.55

Also need `O=C1CCCC(=O)C1=CNc1ccc(O)cc1` , thanks.
5.42

Also need `COc1cc(N2CCCC2)c(OC)cc1C=c1sc2nc3ccccc3n2c1=O` , thanks.
4.83

Kindly give each listed record's pEC50.
1. OCCOCCNc1ncnc2c1cnn2-c1ccc(Cl)cc1
2. Cc1cnc(NC(=O)CSc2nnc(-c3ccccc3)o2)s1
3. COCCn1c(C)cc(C(=O)COC(=O)C23CC4CC(CC(O)(C4)C2)C3)c1C

[6.36, 5.72, 6.09]

* * *

Please respond with reported pEC50 for every item in the list.
Molecular target: Steroidogenic factor 1 (Homo sapiens, UniProt Q13285)
Sequence (Q13285 whole entry, the tested form may be a part): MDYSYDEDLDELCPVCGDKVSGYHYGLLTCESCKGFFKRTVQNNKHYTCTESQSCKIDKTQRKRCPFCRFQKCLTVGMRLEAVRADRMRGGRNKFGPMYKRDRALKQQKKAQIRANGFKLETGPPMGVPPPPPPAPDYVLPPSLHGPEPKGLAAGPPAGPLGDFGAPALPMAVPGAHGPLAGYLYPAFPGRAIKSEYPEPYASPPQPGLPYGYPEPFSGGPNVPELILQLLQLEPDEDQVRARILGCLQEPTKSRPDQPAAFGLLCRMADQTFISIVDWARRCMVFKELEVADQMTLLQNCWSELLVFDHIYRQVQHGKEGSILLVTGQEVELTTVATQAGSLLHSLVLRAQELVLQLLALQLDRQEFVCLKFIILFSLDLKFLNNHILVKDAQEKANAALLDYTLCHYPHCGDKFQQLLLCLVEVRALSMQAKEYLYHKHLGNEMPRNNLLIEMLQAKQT
Experiment: activation of SF-1 LBD reporter – cell-based, CHO-K1, Gal4-SF-1 LBD, luciferase luminescence, dose response (AID 692)
One number for each entry, as −log10 of the molar value.

Sample `CC(=O)Nc1ccc(-c2nc3c(C)cccc3[nH]2)cc1` — what was its pEC50?
5.84

Also need `CCOC(=O)c1cnc2c(-c3ccccc3)cnn2c1N` , thanks.
6.74

Also need `COc1ccc(-c2cc(C(=O)N3CCCCC3)no2)cc1OC` , thanks.
5.42

Also need `COc1cccc2c(O)c(C(=O)NCc3cccs3)cnc12` , thanks.
5.18

Also need COc1cc(C2c3c(c(O)n(-c4ccccc4)c3O)ON2c2ccccc2)ccc1O (stereo not drawn) , thanks.
4.50

Also need `Cc1ccc(C(=O)Nc2ncc(Cc3ccccc3)s2)o1` , thanks.
6.77

Kindly give each listed record's pEC50.
1. COc1ccc2c(c1)CCc1c(C(=O)N3CCCCCC3)noc1-2
2. Nc1c(C(=O)NCc2ccco2)nnn1-c1ccccc1
3. CN(C)C(=O)CSc1nnc(C23CC4CC(CC(C4)C2)C3)o1
4. Cc1ccc(C2C(C(=O)c3cnn(-c4ccccc4)c3C)C(=O)C(=O)N2CCN(C)C)o1 (stereo not drawn)
5. CC1(C)CC(=O)C(=CNc2ccccc2)C(=O)C1
6. CC(C)(C)c1cc(NC(=O)C2CCCO2)no1 (stereo not drawn)
7. CCOC(=O)CSc1nc2ccccc2c(=O)n1NC(=O)c1ccccc1

1. 5.88
2. 5.57
3. 5.18
4. 5.44
5. 5.17
6. 5.55
7. 5.87

Kindly give each listed record's pEC50.
1. COC(=O)c1ccc(C(=O)C(C#N)c2nc3ccccc3s2)cc1 (stereo not drawn)
2. COc1ccccc1Nc1nc2ccccc2[nH]1
3. Cc1ccc(C(=O)Nc2nnc(-c3cccs3)s2)cc1C
4. CS(=O)(=O)c1ccc2nc(NC(=O)C3COc4ccccc4O3)sc2c1 (stereo not drawn)
5. COc1ccc2nc3sc(C(=O)NCc4cccs4)c(N)c3cc2c1
6. Fc1ccc2nc(Nc3nc4c(s3)CCCC4)sc2c1
7. CC(=O)c1c(C)[nH]c(C(=O)Nc2ccc3c(c2)OCCO3)c1C

1. 5.57
2. 5.19
3. 6.00
4. 5.11
5. 6.39
6. 6.00
7. 6.33
